Readings of IC50 for the listed compounds
test system: PA-TU-8902 cells; experiment: Non-anchorage-dependent cell growth inhibition (spheroid 3D culture), PA-TU-8902; type: cell-based, human; conditions: Homo sapiens, PaTu 8902, 144 h; KRAS G12V mutant-positive, 3D spheroid, six days, CellTiter-Glo 2.0; read-out: PA-TU-8902 IC50
Kindly provide the numeric value in µM only, without the unit symbol.

1. CO[C@@H](C)COc1nc(NC2CN(C(=O)O[C@H]3C[C@@H](N(C)C)C3)C2)c2cc(C3CC3)c(-c3c(C)c(F)cc4[nH]ncc34)c(OCc3ccc(-c4cn([C@H](C(=O)N5C[C@H](O)C[C@H]5C(=O)N[C@@H](CO)c5ccc(-n6cncn6)cc5)C(C)C)nn4)cc3)c2n1 (atropisomer, axis not shown; (M)) : 0.033

Then this compound:
Indicate its recorded IC50; the compound in question is CO[C@@H](C)COc1nc(N(C)C2CN(C(=O)CCCN(C)C)C2)c2cc(C3CC3)c(-c3c(C)c(F)cc4[nH]ncc34)c(OCc3ccc(-c4cn([C@H](C(=O)N5C[C@H](O)C[C@H]5C(=O)N[C@@H](CO)c5ccc(-c6scnc6C)cc5)C(C)C)nn4)cc3)c2n1 (atropisomer, axis not shown)
0.125

* * *

target: RAS G12D (Homo sapiens, UniProt P01116, G12D); construct: host or cells: AsPC-1 human pancreatic cancer cells; test: RAS G12D degradation activity, Cell ELISA, AsPC-1; format: cell-based; conditions: AsPC-1 cells, 24 hours; read-out: DC50 (RAS G12D 50% degradation value)
Sequence (P01116 1-188 isoform P01116-2 G12D): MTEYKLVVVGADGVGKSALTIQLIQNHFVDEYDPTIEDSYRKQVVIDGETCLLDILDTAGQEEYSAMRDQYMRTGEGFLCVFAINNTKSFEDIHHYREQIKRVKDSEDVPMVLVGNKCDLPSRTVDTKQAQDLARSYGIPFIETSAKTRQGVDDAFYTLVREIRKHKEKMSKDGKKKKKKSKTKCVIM
Readings of DC50 for the listed compounds
Kindly provide the numeric value in nM only, without the unit symbol.

Example results:
1. CO[C@@H](C)COc1nc(OC2CN(C(=O)NCCN(C)C)C2)c2cc(C3CC3)c(-c3c(C)c(F)cc4[nH]ncc34)c(OCc3ccc(C(=O)N[C@H](C(=O)N4C[C@H](O)C[C@H]4C(=O)N[C@@H](CO)c4ccc(-c5scnc5C)cc4)C(C)C)cc3)c2n1 : 47
2. CO[C@@H](C)COc1cc(OC2CN(C(=O)N3CC(CN(C)C)C3)C2)c2cc(C3CC3)c(-c3c(C)c(F)cc4[nH]ncc34)c(OCc3ccc(-c4cn([C@H](C(=O)N5C[C@H](O)C[C@H]5C(=O)N[C@@H](CO)c5ccc(-c6ocnc6C)cc5)C(C)C)nn4)cc3)c2n1 (atropisomer, axis not shown; (M)) : 5
3. CO[C@@H](C)COc1nc(NC2CN(C(=O)O[C@H]3C[C@@H](N(C)C)C3)C2)c2cc(C3CC3)c(-c3c(C)c(F)cc4[nH]ncc34)c(OCc3ccc(-c4cn([C@H](C(=O)N5C[C@H](O)C[C@H]5C(=O)N[C@@H](CO)c5ccc(-c6scnc6C)cc5)C(C)C)nn4)cc3)c2n1 (atropisomer, axis not shown; (M)) : 4

Indicate its recorded DC50; the compound in question is CO[C@@H](C)COc1cc(OC2CN(C(=O)CCCN(C)C)C2)c2cc(C3CC3)c(-c3c(C)c(F)cc4[nH]ncc34)c(OCc3ccc(-c4cn([C@H](C(=O)N5C[C@H](O)C[C@H]5C(=O)N[C@@H](CO)c5ccc(-n6cncn6)cc5)C(C)C)nn4)cc3)c2n1 (atropisomer, axis not shown; (M))
3

Indicate its recorded DC50; the compound in question is CO[C@@H](C)COc1nc(NC2CN(C(=O)O[C@H]3C[C@@H](N(C)C)C3)C2)c2cc(C3CC3)c(-c3c(C)c(F)cc4[nH]ncc34)c(OCc3ccc(-c4cn([C@H](C(=O)N5C[C@H](O)C[C@H]5C(=O)N[C@@H](CO)c5ccc(N6CCOC6=O)cc5)C(C)C)nn4)cc3)c2n1 (atropisomer, axis not shown)
20

* * *

target: RAS G12V (Homo sapiens, UniProt P01116, G12V); construct: host or cells: PA-TU-8902 human pancreatic cancer cells; test: RAS G12V degradation activity, Cell ELISA, PA-TU-8902; assay type: cell-based; conditions: PA-TU-8902 cells, 24 hours, 100% = Example compound 17 at 1 μM; read-out: DC50 (RAS G12V 50% degradation value)
Sequence (P01116 1-188 isoform P01116-2 G12V): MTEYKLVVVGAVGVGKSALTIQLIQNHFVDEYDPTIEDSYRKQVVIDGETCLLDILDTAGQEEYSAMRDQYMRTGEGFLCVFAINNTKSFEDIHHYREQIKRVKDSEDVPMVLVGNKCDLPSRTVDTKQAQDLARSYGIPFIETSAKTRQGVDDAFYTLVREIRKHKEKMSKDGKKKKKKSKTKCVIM
RECORDED METRIC: DC50 (nM)
Kindly provide the numeric value in nM only, without the unit symbol.

Example results:
1. CO[C@@H](C)COc1nc(NC2CN(C(=O)O[C@H]3C[C@@H](N(C)C)C3)C2)c2cc(C3CC3)c(-c3c(C)c(F)cc4[nH]ncc34)c(OCc3ccc(-c4cn([C@H](C(=O)N5C[C@H](O)C[C@H]5C(=O)N[C@@H](CO)c5ccc(-c6ocnc6C)cc5)C(C)C)nn4)cc3)c2n1 (atropisomer, axis not shown; (M)) [Example 1] : 31
2. COC(C)(C)COc1cc(OC2CN(C(=O)N3CC(CN(C)C)C3)C2)c2cc(C3CC3)c(-c3c(C)c(F)cc4[nH]ncc34)c(OCc3ccc(-c4cn([C@H](C(=O)N5C[C@H](O)C[C@H]5C(=O)N[C@@H](CO)c5ccc(-n6cncn6)cc5)C(C)C)nn4)cc3)c2n1 (atropisomer, axis not shown) [Example 9] : 21
3. CO[C@@H](C)COc1nc(OC2CN(C(=O)NCCN(C)C)C2)c2cc(C3CC3)c(-c3c(C)c(F)cc4[nH]ncc34)c(OCc3ccc(-c4cn([C@H](C(=O)N5C[C@H](O)C[C@H]5C(=O)N[C@@H](CO)c5ccc(-c6scnc6C)cc5)C(C)C)nn4)cc3)c2n1 (atropisomer, axis not shown) [Example 17] : 41
4. CO[C@@H](C)COc1nc(NC2CN(C(=O)N3CC(CN(C)C)C3)C2)c2cc(C3CC3)c(-c3c(C)c(F)cc4[nH]ncc34)c(OCc3ccc(-c4cn([C@H](C(=O)N5C[C@H](O)C[C@H]5C(=O)N[C@@H](CO)c5ccc(-c6scnc6C)cc5)C(C)C)nn4)cc3)c2n1 (atropisomer, axis not shown) [Example 25] : 14
5. CO[C@@H](C)COc1nc(OC2CN(C(=O)NCCN(C)C)C2)c2cc(C3CC3)c(-c3c(C)c(F)cc4[nH]ncc34)c(OCc3ccc(C(=O)N[C@H](C(=O)N4C[C@H](O)C[C@H]4C(=O)N[C@@H](CO)c4ccc(-c5scnc5C)cc4)C(C)C)cc3)c2n1 [Example 40] : 76

Indicate its recorded DC50; the compound in question is CO[C@@H](C)COc1nc(N2CCOCC2)c2cc(C3CC3)c(-c3c(C)c(F)cc4[nH]ncc34)c(OCc3ccc(-c4cn([C@H](C(=O)N5C[C@H](O)C[C@H]5C(=O)N[C@@H](CO)c5ccc(-c6scnc6C)cc5)C(C)C)nn4)cc3)c2n1 (atropisomer, axis not shown) [Example 21]
35

Indicate its recorded DC50; the compound in question is CO[C@@H](C)COc1nc(N2CC(C#N)C2)c2cc(C3CC3)c(-c3c(C)c(F)cc4[nH]ncc34)c(OCc3ccc(-c4cn([C@H](C(=O)N5C[C@H](O)C[C@H]5C(=O)N[C@@H](CO)c5ccc(-c6scnc6C)cc5)C(C)C)nn4)cc3)c2n1 (atropisomer, axis not shown) [Example 20]
48

* * *

tested on: AsPC-1 cells; test: Non-anchorage-dependent cell growth inhibition (spheroid 3D culture), AsPC-1; format: cell-based; settings: Homo sapiens, ASPC1, 144 h; KRAS G12D mutant-positive, 3D spheroid, six days, CellTiter-Glo 2.0; read-out: AsPC-1 IC50
Readings of IC50 for the listed molecules
Kindly provide the numeric value in nM only, without the unit symbol.

Example results:
1. CO[C@@H](C)COc1cc(OC2CN(C(=O)O[C@H]3C[C@@H](N(C)C)C3)C2)c2cc(C3CC3)c(-c3c(C)c(F)cc4[nH]ncc34)c(OCc3ccc(-c4cn([C@H](C(=O)N5C[C@H](O)C[C@H]5C(=O)N[C@@H](CO)c5ccc(-n6cncn6)cc5)C(C)C)nn4)cc3)c2n1 (atropisomer, axis not shown; (M)) : 18
2. CO[C@@H](C)COc1nc(OC2CN(C(=O)NCCN(C)C)C2)c2cc(C3CC3)c(-c3c(C)c(F)cc4[nH]ncc34)c(OCc3ccc(-c4cn([C@H](C(=O)N5C[C@H](O)C[C@H]5C(=O)N[C@@H](CO)c5ccc(-c6scnc6C)cc5)C(C)C)nn4)cc3)c2n1 (atropisomer, axis not shown) : 16
3. CO[C@@H](C)COc1cc(OC2CN(C(=O)N3CC(CN(C)C)C3)C2)c2cc(C3CC3)c(-c3c(C)c(F)cc4[nH]ncc34)c(OCc3ccc(-c4cn([C@H](C(=O)N5C[C@H](O)C[C@H]5C(=O)N[C@@H](CO)c5ccc(-c6ocnc6C)cc5)C(C)C)nn4)cc3)c2n1 (atropisomer, axis not shown; (M)) : 14
4. CO[C@@H](C)COc1cc(OC2CN(C(=O)N3CC(CN(C)C)C3)C2)c2cc(C3CC3)c(-c3c(C)c(F)cc4[nH]ncc34)c(OCc3ccc(-c4cn([C@H](C(=O)N5C[C@H](O)C[C@H]5C(=O)N[C@@H](CO)c5ccc(-c6scnc6C)cc5)C(C)C)nn4)cc3)c2n1 (atropisomer, axis not shown; (M)) : 19
5. CO[C@@H](C)COc1nc(NC2CN(C(=O)N3CC(CN(C)C)C3)C2)c2cc(C3CC3)c(-c3c(C)c(F)cc4[nH]ncc34)c(OCc3ccc(-c4cn([C@H](C(=O)N5C[C@H](O)C[C@H]5C(=O)N[C@@H](CO)c5ccc(-c6scnc6C)cc5)C(C)C)nn4)cc3)c2n1 (atropisomer, axis not shown) : 14

Then this molecule:
GET IC50 | system: AsPC-1 cells | item: CO[C@@H](C)COc1cc(OC2CN(C(=O)N3CC(CN(C)C)C3)C2)c2cc(C3CC3)c(-c3c(C)c(F)cc4[nH]ncc34)c(OCc3ccc(-c4cn([C@H](C(=O)N5C[C@H](O)C[C@H]5C(=O)N[C@@H](CO)c5ccc(-n6cncn6)cc5)C(C)C)nn4)cc3)c2n1 (atropisomer, axis not shown; (M))
8
